- Test system: KM12 colon
- method: NCI tumour cell line growth inhibition, 48 h; in the data active means GI50 below about 0.43 µM; inactive means the rest
Labels: active, inactive

{"columns": ["compound", "assigned-label"],
 "data": [
  ["O=C(/C=C(/C=C/c1cccc2[nH]ccc12)OB(F)F)/C=C/c1cccc2[nH]ccc12", "inactive"],
  ["CCOC(=O)c1c(-c2ccccc2)n2c(=O)cc(C)c3c(O)c(O)cc1c32", "inactive"],
  ["CC(=O)[O-].CC(=O)[O-].O=C([CH-]C(=O)c1ccccc1)c1ccccc1.[Nd+3].[OH3+]", "inactive"],
  ["COc1ccc(-c2nc3sccn3c2-c2ccnc(NCCNS(=O)(=O)c3ccc(C(F)(F)F)cc3)n2)cc1", "inactive"],
  ["COc1ccc(C2=C(c3ccccc3)C(=O)N3CCCC3C2)cc1 (stereo unspecified)", "inactive"],
  ["c1cc[n+](Cc2c3ccccc3cc3c2ccc2ccccc23)cc1", "inactive"],
  ["COc1cccc2nc(Nc3cccc(NC(=O)c4ccc(N5CCN(C)CC5)c(C(F)(F)F)c4)c3)ccc12", "inactive"],
  ["NC(=O)c1c[nH]c2ncnc(N)c12", "inactive"],
  ["O=C(Cc1cc(O)ccc1O)NO", "inactive"],
  ["O=C1/C(=C/c2ccc(Cl)cc2)CN(Cc2cn(CCCNc3ccnc4cc(Cl)ccc34)nn2)C/C1=C\\c1ccc(Cl)cc1", "active"],
  ["C[C@@]12CC[C@@H](O)C[C@@H]1CC[C@H]1[C@H]2CC[C@@]2(C)[C@H](c3ccc(=O)oc3)CC[C@@]12O", "active"]
]}
